// provenance: ChEMBL document CHEMBL1153934

Ki tested on Cannabinoid receptor 2 (Homo sapiens, UniProt P34972): recorded values
Sequence (P34972 whole entry): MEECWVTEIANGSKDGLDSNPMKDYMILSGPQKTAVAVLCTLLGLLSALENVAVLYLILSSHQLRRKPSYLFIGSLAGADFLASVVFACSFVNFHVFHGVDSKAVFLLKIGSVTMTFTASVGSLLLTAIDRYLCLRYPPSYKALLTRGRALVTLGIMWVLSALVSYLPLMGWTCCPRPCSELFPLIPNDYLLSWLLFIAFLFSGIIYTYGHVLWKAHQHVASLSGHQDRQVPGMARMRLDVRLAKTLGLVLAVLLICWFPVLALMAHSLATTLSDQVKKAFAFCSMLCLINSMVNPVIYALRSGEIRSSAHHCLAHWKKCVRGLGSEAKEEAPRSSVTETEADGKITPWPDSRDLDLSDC
// units = nM; emit number, no label

molecule	target.system	Ki (nM)
CC1=CC[C@@H]2[C@@H](C1)c1c(O)cc(C3C4CC5CC(C4)CC3C5)cc1OC2(C)C (stereo not given in full)	Cannabinoid receptor 2 (Homo sapiens, UniProt P34972)	14
CC1=CC[C@@H]2[C@@H](C1)c1c(O)cc(CC34CC5CC(CC(C5)C3)C4)cc1OC2(C)C	Cannabinoid receptor 2 (Homo sapiens, UniProt P34972)	26.9

INPUT: Recall the reported Ki of "CC(=O)Nc1cccc(C(C)(C)c2cc(O)c3c(c2)OC(C)(C)[C@@H]2CC=C(C)C[C@@H]32)c1" on Cannabinoid receptor 2 (Homo sapiens, UniProt P34972) and write it down.
OUTPUT: 13.6

INPUT: Recall the reported Ki of "CC1=CC[C@@H]2[C@@H](C1)c1c(O)cc(C=C3C4CC5CC(C4)CC3C5)cc1OC2(C)C" on Cannabinoid receptor 2 (Homo sapiens, UniProt P34972) and write it down.
OUTPUT: 8.9

INPUT: Recall the reported Ki of CC1=CC[C@@H]2[C@@H](C1)c1c(O)cc(CC3C4CC5CC(C4)CC3C5)cc1OC2(C)C (stereo not given in full) on Cannabinoid receptor 2 (Homo sapiens, UniProt P34972) and write it down.
OUTPUT: 76
